- Tested on: RPMI 8226 cells
- test: MTT assay cytotoxicity RPMI 8226
- applied.conditions: Homo sapiens, RPMI-8226, 48 h, read-out: Cytotoxicity RPMI 8226 IC50
pIC50: −log10 of the molar value.
readout: pIC50

# compound, val
records = [
    ("CC[C@H](C)[C@@H]1C(=O)O[C@H]1C(=O)NCC(=O)N[C@H](C(=O)OCc1ccccc1)C(C)C [Compound 10a]", 6.08),
    ("CC(C)[C@H](NC(=O)[C@@H]1OC(=O)[C@H]1C(C)C)C(=O)N[C@H](C(=O)OCc1ccccc1)C(C)C", 5.88),
    ("CC[C@H](C)[C@@H]1C(=O)O[C@H]1C(=O)N[C@H](C(=O)N[C@@H](COCc1ccccc1)C(=O)OCc1ccccc1)C(C)C [Compound 10k]", 7.30),
    ("CC[C@H](C)[C@@H]1C(=O)O[C@H]1C(=O)N[C@H](C(=O)N[C@H](C(=O)OCc1ccccc1)C(C)C)C(C)C", 6.70),
    ("CC[C@H](C)[C@@H]1C(=O)O[C@H]1C(=O)N[C@H](C(=O)N[C@H](C(=O)NCc1ccccc1)C(C)C)C(C)C [Compound 11e]", 6.41),
    ("CC[C@H](C)[C@@H]1C(=O)O[C@H]1C(=O)N[C@H](C(=O)N[C@H](C(=O)OCc1ccccc1)C(C)(C)C)C(C)C [Compound 10f]", 5.86),
    ("CC(C)[C@H](NC(=O)[C@@H]1OC(=O)[C@H]1C1CCC1)C(=O)N[C@H](C(=O)OCc1ccccc1)C(C)C", 4.52),
]
